Give measured self-cleavage kobs at 10000 uM GlcN6P for each item. Keep answers brief.
B1: glmS ribozyme (parent)
chain: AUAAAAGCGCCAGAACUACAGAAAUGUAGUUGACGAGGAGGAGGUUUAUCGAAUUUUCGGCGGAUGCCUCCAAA

variants of: B1; test: self-cleavage kobs at 10000 uM GlcN6P; higher = faster cleavage; RNA array; settings: with glucosamine-6-phosphate
This sample holds only a part of the variants without activity.
Numbers only, in s⁻¹.

Solved cases (5 shown):
G9A A53G; 3.28e-05
G32A A42G A64G; 0.0016
G21U G29C; 0.00256
A14G A39G; 0.138
G13U G40A G66C C71A; 2.79e-05

Field: self-cleavage kobs at 10000 uM GlcN6P. Fill in for each record below.
1. G43A U56G
2. A14G C16G G38U C50G C67A
3. A33U
4. C8U G38U U49G C50A C68G

### Response
1: 3.58e-05; 2: 9.71e-05; 3: 0.000111; 4: 0.000545
